Hi there, I'd appreciate the recorded emission maximum for every entry that follows.
Assay: solvent given as SMILES
Details: in ClC(Cl)Cl
One number for each entry, in nm.

Please review the following examples before continuing.
cpd_smiles	unit_symbol	emission maximum
c1ccc(N(c2ccccc2)c2ccc(-c3ccc(-c4ccc(-c5cccs5)c5nsnc45)s3)cc2)cc1	nm	670
CC(C)(C)c1ccc2oc3nc4oc5ccc(-n6c7ccccc7c7ccccc76)cc5c4cc3c2c1	nm	446
COc1cc(/C=C/c2nc3ccccc3o2)c(OC)cc1/C=C/c1nc(C)nc(/C=C/c2cc(OC)c(/C=C/c3nc4ccccc4o3)cc2OC)n1	nm	494

Problem: Reported emission maximum, molecule F[B-]1(F)n2c(ccc2-c2nc3ccccc3s2)C(c2ccccc2)=C2C=CC(c3nc4ccccc4s3)=[N+]21 : ____
Solution: 643

====

Experiment: solvent given as SMILES
Details: in Cc1ccccc1
reported_metric: emission maximum

compound	emission maximum
CCN(CC)c1ccc2cc(-c3csc(N)c3C#N)c(=O)oc2c1	447 nm
N#Cc1cc2ccc(cc2)c2cccc3cccc(c4ccc(cc4)cc(C#N)c4ccc(cc4)c4cccc5cccc(c6ccc1cc6)c54)c32	496 nm
c1ccc2nc(-n3c4ccccc4c4ccccc43)c(-n3c4ccccc4c4ccccc43)nc2c1	503 nm
CCCCN1C(=S)c2cccc3cccc(c23)C1=S	506 nm

As a next step, examine the compound that follows.
Problem: If you can, please state the reported emission maximum value of Cc1ccc2c(c1)C1(c3ccccc3-c3ccccc31)c1cc(C)ccc1N2c1ccc2c(c1)Oc1ccccc1P2(=S)c1ccccc1 (stereo not given) .
Solution: 443.09 nm

====

Field: emission maximum. Provide a value for each of the compounds that follow.
Assay: solvent given as SMILES
Settings: in CO
Please append the unit to your numeric answer.

Here are 5 compounds together with their reported answers.
cpd_smiles	reported_metric	recorded_value
c1cc2ccc3cccc4c(-c5cc(-c6nccs6)nc(-c6nccs6)c5)cc(c1)c2c34	emission maximum	483 nm
COc1cc2c3cc(OC)c(OC)cc3c3cc4c(C)cc(=O)oc4cc3c2cc1OC	emission maximum	556 nm
COC(=O)CNC(=O)c1nc2c(N(C)C)nc(N(C)C)nc2n1Cc1ccccc1	emission maximum	429 nm
CN(C)CCCN1c2ccccc2CCc2ccccc21	emission maximum	353 nm
Clc1ccc(/C=C/c2nc3ccccc3o2)cc1	emission maximum	385 nm

Problem: Which emission maximum value belongs to CN(C)c1ccc(/C=C/C=C2\CC/C(=C\C=C\c3ccc(N(C)C)cc3)C2=O)cc1 ?
Solution: 735 nm

====

Assay: solvent given as SMILES
Conditions: in CCO
Threshold 500 nm. emission maximum below it: satisfied. emission maximum at it or above: not satisfied.

Problem: Does this molecule meet the criterion emission maximum < 500 nm? Cc1nc2c(cc3c4c(cccc42)C(=O)OC3=O)o1
Solution: satisfied

Problem: Is 500 nm strictly greater than the molecule's reported emission maximum? molecule: Cc1c(COC(=O)c2ccccc2Br)n2c(OCC(=O)c3ccccc3Br)c(C)c(=O)n2c1=O
Solution: satisfied

Problem: Just wondering, is emission maximum of [BH3-][P+]1(c2ccccc2)c2ccccc2-c2sc3ccccc3c21 (stereo not given) below 500 nm?
Solution: satisfied

Problem: Does this molecule meet the criterion emission maximum < 500 nm? F[B-]1(F)n2cccc2C(c2ccc(-c3c4ccccc4c(-c4ccccc4)c4ccccc34)cc2)=C2C=CC=[N+]21
Solution: not satisfied

These data points were gathered from the Deep4Chem optical property database.
